Reported Inhibitory rate on pro-proliferative effect of IL-13 values follow for various binders
- TESTED_ON: T1, IL-4Rα on TF-1 cells (human, UniProt P24394 26-825)
- T1 sequence (looked up): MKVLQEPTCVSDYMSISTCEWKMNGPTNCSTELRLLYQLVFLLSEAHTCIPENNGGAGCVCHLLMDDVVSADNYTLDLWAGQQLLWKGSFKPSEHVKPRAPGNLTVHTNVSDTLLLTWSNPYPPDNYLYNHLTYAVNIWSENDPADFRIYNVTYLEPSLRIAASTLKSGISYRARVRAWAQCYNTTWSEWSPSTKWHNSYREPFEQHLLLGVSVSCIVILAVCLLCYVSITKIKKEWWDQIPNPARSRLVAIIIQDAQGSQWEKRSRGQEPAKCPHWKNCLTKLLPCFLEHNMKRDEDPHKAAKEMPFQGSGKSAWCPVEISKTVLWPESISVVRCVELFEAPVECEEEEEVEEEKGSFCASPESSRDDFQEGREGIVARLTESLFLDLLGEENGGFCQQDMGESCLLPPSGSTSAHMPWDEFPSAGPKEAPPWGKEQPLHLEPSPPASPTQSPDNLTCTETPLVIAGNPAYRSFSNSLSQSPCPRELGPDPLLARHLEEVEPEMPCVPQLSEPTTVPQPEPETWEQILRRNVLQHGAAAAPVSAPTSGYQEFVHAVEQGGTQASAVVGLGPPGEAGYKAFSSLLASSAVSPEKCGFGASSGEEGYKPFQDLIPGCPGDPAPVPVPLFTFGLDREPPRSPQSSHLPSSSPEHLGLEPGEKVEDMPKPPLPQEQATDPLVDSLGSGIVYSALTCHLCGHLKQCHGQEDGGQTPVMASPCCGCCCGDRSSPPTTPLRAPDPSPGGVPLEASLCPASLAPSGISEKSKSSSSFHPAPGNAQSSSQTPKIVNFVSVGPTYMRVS
- ASSAY_DETAILS: cell-based or functional assay
Format: numeric value only, no unit, no commentary.

Exam item: GET /values?readout=Inhibitory rate on pro-proliferative effect of IL-13&item= L1023H1000 (antibody, V domains shown) VH: EVQLVQSGGGLVHPGGSLRLSCAGSGFTFSRNAMFWVRQAPGKGLEWVSGIGTGGATNYADSVKGRFTISRDNAKNSLYLQMNSLRAEDMAVYYCARGRYYFDYWGQGTLVTVSS VL: EIVLTQSPGTLSLSPGERATLSCRASQSVSSSYLAWYQQKPGQAPRLLIYGASSRAPGIPDRFSGSGSGTDFTLTISRLEPEDFAVYYCQQYDHSAGWTFGQGTKVEIK
Marked response: 0.07

Exam item: Now consider L1019H1000 (antibody, V domains shown, human kappa) VH: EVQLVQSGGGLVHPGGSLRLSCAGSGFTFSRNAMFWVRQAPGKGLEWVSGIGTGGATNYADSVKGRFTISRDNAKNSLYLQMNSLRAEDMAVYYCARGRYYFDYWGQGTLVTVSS VL: EIVLTQSPGTLSLSPGERATLSCRASQSVSNSYLAWYQQKPGQAPRLLIFGASSRATGIPDRFSGSGSGTDFTLTISRLEPEDFAVYYCQQYDHSAGWTFGQGTKVEIK .
Marked response: 0.49
